- tgt: BACE (recombinant human BACE catalytic domain, expressed in CHO cells as BACE-T-IgG, IgG1 removed with thrombin) (human) (UniProt P56817)
- Sequence (P56817 43-460 limits assumed, form in doubt): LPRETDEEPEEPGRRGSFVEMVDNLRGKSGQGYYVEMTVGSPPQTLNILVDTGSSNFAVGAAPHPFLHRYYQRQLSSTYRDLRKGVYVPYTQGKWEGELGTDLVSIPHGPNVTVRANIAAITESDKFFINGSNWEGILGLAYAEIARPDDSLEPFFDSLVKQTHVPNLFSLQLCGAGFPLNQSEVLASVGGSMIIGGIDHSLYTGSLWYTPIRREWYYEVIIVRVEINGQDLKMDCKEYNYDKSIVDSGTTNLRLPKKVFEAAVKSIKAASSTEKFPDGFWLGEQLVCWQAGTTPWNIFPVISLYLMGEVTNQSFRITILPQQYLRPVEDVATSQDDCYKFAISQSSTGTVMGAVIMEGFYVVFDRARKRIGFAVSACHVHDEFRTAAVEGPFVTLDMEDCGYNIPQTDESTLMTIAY
- test: fluorescence anisotropy, BACE titrated into 10 nM labeled peptide, pH 4.5, 1:1 model
Where no end group is shown, it is not given here.
measurementLabel: Kd (nM)
Unit nM implied. Number only.

Return Kd (reported value) for this binder: NLTTYPYFIPLP (also: Alexa488 label, position shown only) [Molecule X (… labeled with Alexa488)]
904
